Field: MTD. Provide a value for each of the compounds that follow.
MEASUREMENT PROTOCOL: in vivo
PROTOCOL CONDITIONS: female, athymic nude CD-1, mouse, sc
Answers are plain numbers, in mg/kg.

[
  {
    "COMPOUND": "CC(=O)O[C@H]1C(=O)[C@@]2(C)[C@H]([C@H](OC(=O)c3ccccc3)[C@]3(O)C[C@H](OC(=O)[C@H](O)[C@@H](NC(=O)c4ccccc4)c4ccccc4)C(C)=C1C3(C)C)[C@]1(OC(C)=O)CO[C@@H]1C[C@@H]2O [PTX, paclitaxel, reference compound]",
    "MTD, mg/kg": 10
  }
]

Prompt: Fill in: MTD of CC(=O)O[C@@]1([C@@H]2/C(C)=C(/O)C(=O)C3=C(C)[C@@H](OC(=O)[C@H](O)[C@H](CC(C)C)NC(=O)OC(C)(C)C)C[C@@](O)([C@H]2OC(=O)c2ccccc2)C3(C)C)CO[C@@H]1CCO is ___
Response: 120

###

MEASUREMENT PROTOCOL: Pharmacokinetic study, plasma levels by HPLC
Assay type: in vivo, CDF1 mice
PROTOCOL CONDITIONS: female, CDF1, mouse, in vivo, iv, 120 mg/kg
RESULT TYPE: AUC (µg·h/mL)
Numbers only, in µg·h/mL.

Prompt: Fill in: AUC of CC(=O)O[C@@]1([C@@H]2/C(C)=C(/O)C(=O)C3=C(C)[C@@H](OC(=O)[C@H](O)[C@H](CC(C)C)NC(=O)OC(C)(C)C)C[C@@](O)([C@H]2OC(=O)c2ccccc2)C3(C)C)CO[C@@H]1CCO is ___
Response: 125

###

MEASUREMENT PROTOCOL: Pharmacokinetic study, plasma levels by HPLC
Assay type: in vivo, CDF1 mice
PROTOCOL CONDITIONS: female, CDF1, mouse, in vivo, iv, 120 mg/kg
RESULT TYPE: AUC(0-inf) (µg·h/mL)
One number for each entry, in µg·h/mL.

Prompt: Fill in: AUC(0-inf) of CC(=O)O[C@@]1([C@@H]2/C(C)=C(/O)C(=O)C3=C(C)[C@@H](OC(=O)[C@H](O)[C@H](CC(C)C)NC(=O)OC(C)(C)C)C[C@@](O)([C@H]2OC(=O)c2ccccc2)C3(C)C)CO[C@@H]1CCO is ___
Response: 128

###

MEASUREMENT PROTOCOL: Pharmacokinetic study, plasma levels by HPLC
Format: in vivo, CDF1 mice
PROTOCOL CONDITIONS: female, CDF1, mouse, in vivo, iv, 120 mg/kg
RESULT TYPE: Cmax (µg/mL)
Answers are plain numbers, in µg/mL.

Prompt: Fill in: Cmax of CC(=O)O[C@@]1([C@@H]2/C(C)=C(/O)C(=O)C3=C(C)[C@@H](OC(=O)[C@H](O)[C@H](CC(C)C)NC(=O)OC(C)(C)C)C[C@@](O)([C@H]2OC(=O)c2ccccc2)C3(C)C)CO[C@@H]1CCO is ___
Response: 161

###

MEASUREMENT PROTOCOL: Pharmacokinetic study, plasma levels by HPLC
Assay type: in vivo, CDF1 mice
PROTOCOL CONDITIONS: female, CDF1, mouse, in vivo, bioavailability (F)
RESULT TYPE: bioavailability
Please state the number and follow it with the unit.

Prompt: Fill in: bioavailability of CC(=O)O[C@@]1([C@@H]2/C(C)=C(/O)C(=O)C3=C(C)[C@@H](OC(=O)[C@H](O)[C@H](CC(C)C)NC(=O)OC(C)(C)C)C[C@@](O)([C@H]2OC(=O)c2ccccc2)C3(C)C)CO[C@@H]1CCO [IDN 5390] is ___
Response: 27.3%
